Answer each item with its documented inhibition at 100 µM.
molecular target: SARS-CoV-2 Mac1 (Severe acute respiratory syndrome coronavirus 2, UniProt P0DTD1); assay: biochemical; conditions: read-out: %inhibition
Where a name gives a salt, the structure may show the parent alone.

The molecule CCOc1ccccc1O[C@H](c1ccccc1)[C@H]1CNCCO1 (racemic) [Reboxetine mesylate] showed inhibition at 100 µM equal to 0%

The molecule N#C/C(=C1/SC[C@@H](c2ccc(Cl)cc2Cl)S1)n1ccnc1 showed inhibition at 100 µM equal to 24.1%

The molecule C[C@@H](O)[C@H]1C(=O)N2C(C(=O)O)=C([C@H]3CCCO3)S[C@H]12 [Faropenem Sodium] showed inhibition at 100 µM equal to 0%

The molecule O=C(O)c1cn(-c2ccc(F)cc2)c2cc(N3CCNCC3)c(F)cc2c1=O [Sarafloxacin HCl] showed inhibition at 100 µM equal to 15.7%

The molecule CCCCCNC(=N)N/N=C/c1c[nH]c2ccc(OC)cc12 [Tegaserod Maleate] showed inhibition at 100 µM equal to 1.73%

The molecule CO[C@H]1C[C@@H]2CC[C@@H](C)[C@@](O)(O2)C(=O)C(=O)N2CCCC[C@H]2C(=O)O[C@H]([C@H](C)C[C@@H]2CC[C@@H](O)[C@H](OC)C2)CC(=O)[C@H](C)/C=C(\C)[C@@H](O)[C@@H](OC)C(=O)[C@H](C)C[C@H](C)/C=C/C=C/C=C/1C [Rapamycin (Sirolimus)] showed inhibition at 100 µM equal to 30.7%

The molecule O=C(CCCN1CCN(c2ccccn2)CC1)c1ccc(F)cc1 showed inhibition at 100 µM equal to 22.5%

The molecule CCN(CC)C(=O)c1cccnc1 [Nikethamide] showed inhibition at 100 µM equal to 0%

The molecule COc1ccc2c(O[C@@H]3C[C@H]4C(=O)N[C@]5(C(=O)NS(=O)(=O)C6CC6)C[C@H]5/C=C\CCCCN(C)C(=O)[C@@H]4C3)cc(-c3nc(C(C)C)cs3)nc2c1C showed inhibition at 100 µM equal to 11.4%

The molecule N[C@@H](CCC(=O)O)C(=O)O [L-Glutamic acid monosodium salt] showed inhibition at 100 µM equal to 0%

The molecule CC1Cc2ccccc2N1NC(=O)c1ccc(Cl)c(S(N)(=O)=O)c1 (stereo not shown) [Indapamide] showed inhibition at 100 µM equal to 36.3%

The molecule CC(=O)NC[C@H]1CN(c2ccc(N3CCOCC3)c(F)c2)C(=O)O1 showed inhibition at 100 µM equal to 0%

The molecule COc1ccc2c(c1)c(CC(=O)OCC(=O)O)c(C)n2C(=O)c1ccc(Cl)cc1 showed inhibition at 100 µM equal to 8.64%

The molecule C=C[C@H]1CN2CC[C@H]1C[C@H]2[C@H](O)c1ccnc2ccc(OC)cc12 [Quinine HCl Dihydrate] showed inhibition at 100 µM equal to 0%

The molecule CCn1cc(C(=O)O)c(=O)c2cc(F)c(N3CCNCC3)cc21 showed inhibition at 100 µM equal to 24.7%

The molecule CCCCOc1cc(C(=O)NCCN(CC)CC)c2ccccc2n1 showed inhibition at 100 µM equal to 0%

The molecule CCCCCCCCCCCCCCCCCC(=O)O showed inhibition at 100 µM equal to 6.72%

The molecule O=C1NC(=O)C(c2ccccc2)(c2ccccc2)N1 showed inhibition at 100 µM equal to 14.7%

The molecule O=S(=O)(O)CCCS(=O)(=O)O [Eprodisate disodium] showed inhibition at 100 µM equal to 0%

The molecule N#Cc1ccc2[nH]cc(CCCCN3CCN(c4ccc5oc(C(N)=O)cc5c4)CC3)c2c1 [Vilazodone HCl] showed inhibition at 100 µM equal to 9.5%

The molecule CC[C@]12CCCN3CCc4c(n(c5ccccc45)[C@@](O)(C(=O)OC)C1)[C@@H]32 showed inhibition at 100 µM equal to 13.7%

The molecule CN(C)c1ccc(O)c2c1C[C@H]1C[C@H]3[C@H](N(C)C)C(O)=C(C(N)=O)C(=O)[C@@]3(O)C(O)=C1C2=O [Minocycline HCl] showed inhibition at 100 µM equal to 0%

The molecule CCCS(=O)(=O)Nc1ccc(F)c(C(=O)c2c[nH]c3ncc(-c4ccc(Cl)cc4)cc23)c1F showed inhibition at 100 µM equal to 2.37%

The molecule COc1ccc(CN(CCN(C)C)c2ccccn2)cc1 [Pyrilamine Maleate] showed inhibition at 100 µM equal to 5.37%

The molecule CN(Cc1cc(Br)cc(Br)c1N)C1CCCCC1 [Bromhexine HCl] showed inhibition at 100 µM equal to 0%

The molecule C[C@]12CC[C@H](O)CC1=CC[C@@H]1[C@@H]2CC[C@]2(C)C(n3cnc4ccccc43)=CC[C@@H]12 showed inhibition at 100 µM equal to 31.2%

The molecule Cc1onc(-c2ccccc2)c1C(=O)N[C@@H]1C(=O)N2[C@@H]1SC(C)(C)[C@@H]2C(=O)O [Oxacillin sodium monohydrate] showed inhibition at 100 µM equal to 0%

The molecule C[C@H](CCC(=O)O)[C@H]1CC[C@H]2[C@@H]3CC[C@@H]4C[C@H](O)CC[C@]4(C)[C@H]3C[C@H](O)[C@]12C showed inhibition at 100 µM equal to 0%

The molecule COc1ccc([C@H]2CNC(=O)C2)cc1OC1CCCC1 [S- (+)-Rolipram] showed inhibition at 100 µM equal to 0%

The molecule Cc1cc(Nc2ncc(Cl)c(Nc3ccccc3S(=O)(=O)C(C)C)n2)c(OC(C)C)cc1C1CCNCC1 showed inhibition at 100 µM equal to 0%

The molecule CCC[C@@H]1CC(=O)N([C@@H](CC)C(N)=O)C1 showed inhibition at 100 µM equal to 24.6%

The values you see were collected from paper doi:10.1101/2021.10.07.463234v2.
